- systemTested: T1, human SPNS2 (human, UniProt Q8IVW8 1-549)
- T1 construct: S1P transporter; in Cell ELISA and S1P assays on Flp-in 293 cells that also express human SphK1; also called Spinster homolog 2; native type
- T1 sequence: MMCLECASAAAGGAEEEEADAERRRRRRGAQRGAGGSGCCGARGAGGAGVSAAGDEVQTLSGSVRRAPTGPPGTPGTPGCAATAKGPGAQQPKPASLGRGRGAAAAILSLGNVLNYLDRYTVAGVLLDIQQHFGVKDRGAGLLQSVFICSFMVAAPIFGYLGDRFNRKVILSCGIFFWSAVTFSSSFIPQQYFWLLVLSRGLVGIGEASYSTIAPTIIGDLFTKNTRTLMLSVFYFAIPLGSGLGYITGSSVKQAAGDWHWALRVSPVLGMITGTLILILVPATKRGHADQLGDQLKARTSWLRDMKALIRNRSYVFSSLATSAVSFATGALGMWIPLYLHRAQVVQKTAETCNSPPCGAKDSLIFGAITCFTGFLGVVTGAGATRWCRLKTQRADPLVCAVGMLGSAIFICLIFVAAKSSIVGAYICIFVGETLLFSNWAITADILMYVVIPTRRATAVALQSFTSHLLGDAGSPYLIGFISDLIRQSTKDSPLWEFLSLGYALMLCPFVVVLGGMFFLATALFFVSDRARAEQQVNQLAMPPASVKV
- assayText: Cell ELISA
- Experimental: Human and mouse SPNS2 and human SphK1 double stable expression Flp-in 293 cells were added to a poly D lysine coat 96-well plate (Corning, 356461) in a density of 1×10⁵ cells/well and was cultivated overnight, and then the culture medium was removed. […] After 20 minutes, 2N sulfuric acid was added to each well (100 μL), and absorbance at 450 nm and 550 nm was measured. […]
measuredMetric: pEC50

I would be grateful if you could share the reported pEC50 for 82-1109A (antibody, IgG2b, V domains shown) VH: QVQLQQSGVELAKPGSSVKISCKASGNTFTSNYITWIKQTPGQGLEYIGYINTGSGKTYYNEKFKGKATLTADKSSSTAFMQLSSLTPDDSAVYFCASLTGVDYFDDWGQGVMVTVSS VL: DDIVLTQSPALAPSLGQRATISCRASQSVRMSGYNLMHWYQQKPGQQPKLLIYDASKLASGIPARFSGSGSGTDFTLTIDPVQSDDIATYYCQQSKDDPYTFGAGTKLELRR . 7.83 pEC50 (M)

I would be grateful if you could share the reported pEC50 for 80-1104A (antibody, IgG2b, V domains shown) VH: EVQLVETGGGLVQPGSSLKLSCSTSGFTFSETWMSWVRQAPGKGLEWVGLIKDKNSNYEANYAESVKGRFTISRDDSKRRVYLQMYTLRDQDTATYYCTSHEDFYYYSSYYFDYWGQGVMVTVSS VL: DIVLTQSPATLSVTPGESVSLSCRASQGISTSIHWYQQKSNESPRLLIKYASQSMSGIPSRFSGSGSGTDFTLRINRVESEDFSVYYCQQSYNLPLTFGSGTKLEIKR . 8.47 pEC50 (M)

I would be grateful if you could share the reported pEC50 for 33-0503E (antibody, IgG2b, V domains shown) VH: EVQLVESGGGLVRPGGSMKLSCGASGFIFDNYYMTWVRQAPTKGLEWVASISSSGGNTYYRDSVRGRFTISRDNAGNTLSLQMGSLRAEDTATYHCAKEGYRGRYFDYWGQGVMVTVSS VL: QVVLTQPNSVSTNLGSTVKLSCKRTTGNIGSNYVNWYQQHEGRSPTTMIYRDDERPDGVPDRFSGSIDRSSNSALLTINNVQTEDEAEYFCQSYSSGIIFGGGTKLTVL . 8.12 pEC50 (M)

Origin of measurements: patent US20210147523A1
